- Test system: hiPSC-CM (iCell Cardiomyocytes^2)
- Assay: Intracellular miRNA expression by RT-qPCR in hiPSC-CM pellets after 72-hour treatment
- Protocol Conditions: Homo sapiens, 72 h, read-out: hsa-miR-185-3p fold change
Reported Metric: fold induction at 0.3 µM

Cc1[nH]c(=O)c(C#N)cc1-c1ccncc1 = 0.2
CCCCCNC(=N)N/N=C/c1c[nH]c2ccc(OC)cc12 = 1

**Q:** Which value of fold induction at 0.3 µM has been reported for "CC[C@]1(O)C[C@H]2CN(CCc3c([nH]c4ccccc34)[C@@](C(=O)OC)(c3cc4c(cc3OC)N(C=O)[C@H]3[C@@](O)(C(=O)OC)[C@H](OC(C)=O)[C@]5(CC)C=CCN6CC[C@]43[C@@H]65)C2)C1" in the records?
**A:** 1.1

**Q:** Would you kindly repeat that for CCCN1C[C@H](CSC)C[C@@H]2c3cccc4[nH]cc(c34)C[C@H]21 [Pergolide] ?
**A:** 1.1

**Q:** Consider next the compound "CCN[C@@H](C)Cc1cccc(C(F)(F)F)c1" in the same way.
**A:** 0.7

**Q:** // repeat for COc1nc(N)nc2c1ncn2[C@@H]1O[C@H](COP(=O)(N[C@@H](C)C(=O)OCC(C)(C)C)Oc2cccc3ccccc23)[C@@H](O)[C@@]1(C)O (some centres unmarked) and report
**A:** 0.5

**Q:** And for "CCC1=C[C@@H]2CN(C1)Cc1c([nH]c3ccccc13)[C@@](C(=O)OC)(c1cc3c(cc1OC)N(C)[C@H]1[C@@](O)(C(=O)OC)[C@H](OC(C)=O)[C@]4(CC)C=CCN5CC[C@]31[C@@H]54)C2" ?
**A:** 1.9

**Q:** Moving on to "CC(=O)[C@]1(O)Cc2c(O)c3c(c(O)c2[C@@H](O[C@H]2C[C@H](N)[C@H](O)[C@H](C)O2)C1)C(=O)c1ccccc1C3=O"
**A:** 1.3
